Assay: Heme-peptide binding assay (colour change)
Settings: equimolar heme and peptide, 100 µM, 1 h, room temperature
Experimental: Heme solutions were freshly prepared by dissolving hemin chloride (Sigma Cat No: 3741) in 0.1 M NaOH and used within an hour after preparation. Two heme-sequestering peptides, NCR247 and NCR455 ([Montiel et al., 2017]; [Sankari et al., 2022]), were used as positive controls, and water-only treatment as a negative control. The equimolar concentration of heme and peptide (100 µM) or water were mixed and incubated at room temperature for 1 h. […]
Where no end group is shown, it is not given here.
MEASUREMENT TYPE: heme binding (colour change of heme from brown to reddish-brown)

residue_codes="TKPCQSDKDCKKFACRKPKVPKCINGFCKCVR (disulfide (positions not given here)) [NCR13_PFV2]" endpoint_value="no such color change"
residue_codes="TKPCQSDKDCKKFACRKPKVPKCINGFCKCVR (disulfide (positions not given here)) [NCR13_PFV1, chickpea nodule-specific cysteine-rich 32 amino acid peptide, disulfide cross-linking variant 1, expressed in Pichia pastoris]" endpoint_value="no such color change"
